Measurement target: Cytochrome P450 2C19 (Homo sapiens)
Assay procedure: Cytochrome P450 Family 2 Subfamily C Member 19 (CYP2C19) small molecule antagonists: luciferase reporter qHTS assay (AID 1671197); further: nearly all actives have a fitted effect of over 65% in size
Measurement conditions: P450-Glo CYP2C19 enzyme, luciferin luminescence, 1 h; series mostly up to 115 µM
Records with an inconclusive call do not appear. The source made the active and inactive calls. The call rests on the fitted dose curve; in most records, active means well fitted inhibition curve with a large enough effect in the repeat runs; inconclusive means weak or mixed curves; inactive means no such curve, though single readings can be large or run the other way.
Log the outcome using a class from active, inactive

-- ask Short answer needed: outcome of this test for CCCCc1c(C)nc(NCC)nc1OS(=O)(=O)N(C)C ?
-- reply active

-- ask Short answer needed: outcome of this test for NC(=O)CI ?
-- reply active

-- ask Short answer needed: outcome of this test for CC(O)(CS(=O)(=O)c1ccc(F)cc1)C(=O)Nc1ccc(C#N)c(C(F)(F)F)c1 (configuration not stated) ?
-- reply active

-- ask Short answer needed: outcome of this test for C=COC(C)=O ?
-- reply inactive

-- ask Short answer needed: outcome of this test for O=C1CN=C(c2ccccc2)c2cc(Cl)ccc2N1CC1CC1 ?
-- reply active

-- ask Short answer needed: outcome of this test for C[C@H]1CNCCc2ccc(Cl)cc21 ?
-- reply inactive

-- ask Short answer needed: outcome of this test for C=CC(=O)OC(C)(C)C ?
-- reply active
